Hi there, I'd appreciate the recorded pKa for every entry that follows.
details: basic group
// keep it numeric: no unit symbol after the value

Item: "Cc1ccc2cccc(O)c2n1" | pKa: 5.63

For this compound ( "CCc1ccncc1" ), measured pKa is 5.94

Per the records, this compound ( "CNc1nc(C)nc2c1cnn2C" ) has pKa equal to 5

Record summary for "CC(C)(C)CC(=O)n1cnc(Br)c1" : reported pKa = 4

Memo: "O[C@@H]1[C@H](O)[C@@H](n2cnc3cncnc32)OC[C@@H]1O" , reported pKa: 1.8

Entry "N[C@@H]1C[C@@H]1[NH3+]" , pKa reported as 4.2

Data point: "N#Cc1ccncc1" ; pKa = 1.91

The value of pKa measured for the compound "C[NH+](C)CCNc1c2ccccc2nc2cccc([N+](=O)[O-])c12" turned out to be 4.9

Documented pKa of O=C([O-])C(CO)NCc1cc(Cl)ccc1[O-] (stereo unspecified) : 10.2

Kindly note the recorded pKa for "CNc1ncnc2scnc12" , which is 2.84

"CCOC(=O)c1cnc2ccccc2c1OCC" has a reported pKa of 3.88

// recorded pKa for NC(=S)C([NH3+])Cc1ccccc1 (stereo unspecified) : -8.63

Consider "Nc1ncnc2[nH]cnc12" . Its measured pKa is 4.26

Note to self: pKa recorded for "CCc1cncc(C)c1" was 5.2

The value of pKa measured for the compound "C1CN(CCN2CCOCC2)CCO1" turned out to be 6.65

// pKa lookup, compound = ClC1CN2CCC1CC2 (stereo unspecified) , result: 8.79

Data point: "C[NH+](C)CCCNc1c([N+](=O)[O-])cnc2ccccc12" ; pKa = 4.43

Entry under test: "CCNc1nc(N)nc(NCC)n1" . Its pKa was 5.52

Value of pKa reported for the compound "COc1nc(C)cc([O-])n1" is 8.4

"CCc1cc(Cl)n(C)c2nc3ccccc3c1-2" yielded pKa of 7.46

The value of pKa measured for the compound "c1nc(Cc2c[nH]c(Cc3nc(Cc4c[nH+]c[nH]4)c[nH]3)[nH+]2)c[nH]1" turned out to be 5.43

Quick note, pKa for "c1cc(N2CCCC2)c2c(N3CCCC3)cccc2c1" landed at 9.97

# pKa of "CC(=O)NNC1CCN(C)CC1" = 8.7

In plain terms, "COc1ccc2c(c1)NCC[NH2+]2" has a documented pKa of 1.93

// field: pKa; key: "Nc1ccc(CC(=O)[O-])cc1" ; value = 5.2

The recorded pKa for "c1ccc2c(c1)ccc1nc[nH]c12" is 5.28

Sample CCCN(CC)C(CC)C(=O)Nc1c(C)cccc1C (stereo unspecified) ; pKa observed: 6.62

The compound listed as "C#CCN" has a reported pKa of 8.19

Lab note: "CCOC(=O)c1cnc2ccc([N+](=O)[O-])cc2c1[O-]" gave pKa of 8

Form field pKa, entry "CC(=O)N=S(C)C" : 3.16

Consider "CCNCC[Se-]" . Its measured pKa is 10.9
